This collection of values is drawn from the supplement of paper PMC10126150.

Tested on: ATP;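 further: ATP exposure 15 min at 22 °C before imaging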
assay summary: switch fluorescence ratio, 500 uM ATP over buffer (Cy3 cluster intensity, sum of 5 cycles each) (fold (ratio)); higher = stronger signal-on switching upon ATP binding; sequences stand for … in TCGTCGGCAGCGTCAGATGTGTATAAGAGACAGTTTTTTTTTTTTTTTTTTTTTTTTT…TC
experimental conditions: aptamer strand: ATP DNA aptamer (quencher-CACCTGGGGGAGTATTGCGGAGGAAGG + anchor), 100 nM annealed; ATP concentration: 500 uM
reported property: switch fluorescence ratio
Respond with the number and no other words.

Below, each entry is followed by its recorded switch fluorescence ratio result.
{"sequence": "TGCACCGAGT", "reported result": 1.04}
{"sequence": "TCCGTTTTGG", "reported result": 1.03}
{"sequence": "GCGTTCGGCC", "reported result": 1.01}
{"sequence": "GACTTGTAGG", "reported result": 0.984}
{"sequence": "CGGGATTAGT", "reported result": 0.99}

Moving on to another sequence below.
Tested system ATP; switch fluorescence ratio recorded for GCTCATGGTT was 1.03

---

Test system: ATP;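 further: ATP exposure 15 min at 22 °C before imaging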
assay summary: switch fluorescence ratio, 500 uM ATP over buffer (Cy3 cluster intensity, sum of 5 cycles each) (fold (ratio)); higher = stronger signal-on switching upon ATP binding; sequences stand for … in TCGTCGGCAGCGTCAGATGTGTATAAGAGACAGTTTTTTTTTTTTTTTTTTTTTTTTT…TC
experimental conditions: aptamer strand: ATP DNA aptamer (quencher-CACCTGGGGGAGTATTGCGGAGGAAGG + anchor), 100 nM annealed; ATP concentration: 500 uM
reported property: switch fluorescence ratio
Respond with the number and no other words.

Below, each entry is followed by its recorded switch fluorescence ratio result.
{"sequence": "AAAGAGAATA", "switch fluorescence ratio": 0.987}
{"sequence": "AGACGAAAGA", "switch fluorescence ratio": 1.02}
{"sequence": "GAATCACTAA", "switch fluorescence ratio": 1}

Form: sequence = GTGCTAAATA ; switch fluorescence ratio = 1.02

Form: sequence = CATTTGGCGT ; switch fluorescence ratio = 0.972

Form: sequence = ATAAGTTAAG ; switch fluorescence ratio = 0.999

Form: sequence = TTAGTAAGTT ; switch fluorescence ratio = 1.11

---

Test system: ATP;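 further: ATP exposure 15 min at 22 °C before imaging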
assay summary: switch fluorescence ratio, 500 uM ATP over buffer (Cy3 cluster intensity, sum of 5 cycles each) (fold (ratio)); higher = stronger signal-on switching upon ATP binding; sequences stand for … in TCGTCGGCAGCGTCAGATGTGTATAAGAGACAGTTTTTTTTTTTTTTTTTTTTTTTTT…TC
experimental conditions: aptamer strand: ATP DNA aptamer (quencher-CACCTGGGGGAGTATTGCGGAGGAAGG + anchor), 100 nM annealed; ATP concentration: 500 uM
reported property: switch fluorescence ratio

Below, each entry is followed by its recorded switch fluorescence ratio result.
{"sequence": "GGTGTTAAGA", "target under test": "ATP", "switch fluorescence ratio": 1.01}
{"sequence": "TAATCATTGG", "target under test": "ATP", "switch fluorescence ratio": 1.01}
{"sequence": "GAGGTGCGGG", "target under test": "ATP", "switch fluorescence ratio": 0.99}
{"sequence": "ACGTTTTCGG", "target under test": "ATP", "switch fluorescence ratio": 0.984}
{"sequence": "CATTGTGTGA", "target under test": "ATP", "switch fluorescence ratio": 0.994}

Form: sequence = GGGGATAGGG ; switch fluorescence ratio = 0.985

---

Reported switch fluorescence ratio is given for each of the following sequences.
Tested on: ATP;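 further: ATP exposure 15 min at 22 °C before imaging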
assay summary: switch fluorescence ratio, 500 uM ATP over buffer (Cy3 cluster intensity, sum of 5 cycles each) (fold (ratio)); higher = stronger signal-on switching upon ATP binding; sequences stand for … in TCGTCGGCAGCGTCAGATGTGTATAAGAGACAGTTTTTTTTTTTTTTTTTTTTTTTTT…TC
experimental conditions: aptamer strand: ATP DNA aptamer (quencher-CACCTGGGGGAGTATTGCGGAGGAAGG + anchor), 100 nM annealed; ATP concentration: 500 uM
Respond with the number and no other words.

Below, each entry is followed by its recorded switch fluorescence ratio result.
{"sequence": "GTCGGGGGGA", "target under test": "ATP", "switch fluorescence ratio": 0.993}
{"sequence": "TGCGGGGAAT", "target under test": "ATP", "switch fluorescence ratio": 0.971}
{"sequence": "ATTATTAGAA", "target under test": "ATP", "switch fluorescence ratio": 0.991}
{"sequence": "GAGGTTGGCA", "target under test": "ATP", "switch fluorescence ratio": 0.994}
{"sequence": "TGAGACAAGC", "target under test": "ATP", "switch fluorescence ratio": 1.05}

Form: sequence = CAATGTGGGT ; switch fluorescence ratio = 0.986

Form: sequence = AACTGTTGGT ; switch fluorescence ratio = 0.978

Form: sequence = GTTAGAGCGG ; switch fluorescence ratio = 1.02

Form: sequence = TATGTGAAAA ; switch fluorescence ratio = 0.975

Form: sequence = TCTTAGTTAG ; switch fluorescence ratio = 0.988

Form: sequence = GTTTATCGCT ; switch fluorescence ratio = 1.02

Form: sequence = TGTAGTATGT ; switch fluorescence ratio = 1

Form: sequence = GACTATTAGA ; switch fluorescence ratio = 0.992

Form: sequence = GTTAGGTTTG ; switch fluorescence ratio = 0.997

Form: sequence = CTCAGTAGGG ; switch fluorescence ratio = 0.975

Form: sequence = TCATAACTGC ; switch fluorescence ratio = 1.02

Form: sequence = TGTTTATGGT ; switch fluorescence ratio = 1.02

---

Test system: ATP;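 further: ATP exposure 15 min at 22 °C before imaging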
assay summary: switch fluorescence ratio, 500 uM ATP over buffer (Cy3 cluster intensity, sum of 5 cycles each) (fold (ratio)); higher = stronger signal-on switching upon ATP binding; sequences stand for … in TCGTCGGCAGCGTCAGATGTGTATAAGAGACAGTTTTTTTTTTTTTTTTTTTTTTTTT…TC
experimental conditions: aptamer strand: ATP DNA aptamer (quencher-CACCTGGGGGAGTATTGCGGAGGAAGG + anchor), 100 nM annealed; ATP concentration: 500 uM
reported property: switch fluorescence ratio
Respond with the number and no other words.

Below, each entry is followed by its recorded switch fluorescence ratio result.
{"sequence": "GAATGGGATT", "target under test": "ATP", "reported result": 0.976}
{"sequence": "GAGAGGATAG", "target under test": "ATP", "reported result": 0.982}
{"sequence": "TATTAGGGAT", "target under test": "ATP", "reported result": 0.995}
{"sequence": "GAACGCTTGG", "target under test": "ATP", "reported result": 1.05}
{"sequence": "AAGGCCAGCG", "target under test": "ATP", "reported result": 0.953}
{"sequence": "ACTAGGGGAC", "target under test": "ATP", "reported result": 1.06}
{"sequence": "GTATATATAT", "target under test": "ATP", "reported result": 0.979}
{"sequence": "TAAGGAGTTC", "target under test": "ATP", "reported result": 0.965}

Form: sequence = GTCGAAGAG ; switch fluorescence ratio = 0.987

Form: sequence = CGTGGGCAGT ; switch fluorescence ratio = 0.956

Form: sequence = CGCGGGGTAG ; switch fluorescence ratio = 1.04

Form: sequence = TTTTGTGGG ; switch fluorescence ratio = 0.966

Form: sequence = GTGATGTTGT ; switch fluorescence ratio = 0.977

Form: sequence = ATAACGTTTT ; switch fluorescence ratio = 1.02

Form: sequence = TGTGGGTATT ; switch fluorescence ratio = 1.01

Form: sequence = TAGTAGGAGT ; switch fluorescence ratio = 1.02

Form: sequence = AGCATTTCTT ; switch fluorescence ratio = 0.98

---

System: ATP;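 further: ATP exposure 15 min at 22 °C before imaging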
assay summary: switch fluorescence ratio, 500 uM ATP over buffer (Cy3 cluster intensity, sum of 5 cycles each) (fold (ratio)); higher = stronger signal-on switching upon ATP binding; sequences stand for … in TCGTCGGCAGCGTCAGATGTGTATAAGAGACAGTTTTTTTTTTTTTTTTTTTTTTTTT…TC
experimental conditions: aptamer strand: ATP DNA aptamer (quencher-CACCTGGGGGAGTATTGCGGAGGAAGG + anchor), 100 nM annealed; ATP concentration: 500 uM
reported property: switch fluorescence ratio
Respond with the number and no other words.

Below, each entry is followed by its recorded switch fluorescence ratio result.
{"sequence": "CTGGTGGAGC", "switch fluorescence ratio": 0.954}
{"sequence": "ACTTTGTCGG", "switch fluorescence ratio": 0.995}
{"sequence": "AAATTAGGAT", "switch fluorescence ratio": 0.997}
{"sequence": "TCCGATTGGG", "switch fluorescence ratio": 0.98}
{"sequence": "TGGTAAAGGT", "switch fluorescence ratio": 0.985}

Form: sequence = ATAGAGTGCG ; switch fluorescence ratio = 0.957

Form: sequence = GCAAGAGATA ; switch fluorescence ratio = 1.02

---

Test system: ATP;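 further: ATP exposure 15 min at 22 °C before imaging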
assay summary: switch fluorescence ratio, 500 uM ATP over buffer (Cy3 cluster intensity, sum of 5 cycles each) (fold (ratio)); higher = stronger signal-on switching upon ATP binding; sequences stand for … in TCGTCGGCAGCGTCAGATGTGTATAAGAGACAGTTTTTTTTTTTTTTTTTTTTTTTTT…TC
experimental conditions: aptamer strand: ATP DNA aptamer (quencher-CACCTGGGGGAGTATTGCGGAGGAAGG + anchor), 100 nM annealed; ATP concentration: 500 uM
reported property: switch fluorescence ratio

Below, each entry is followed by its recorded switch fluorescence ratio result.
{"sequence": "TCATGTATGG", "reported result": 0.977}
{"sequence": "GGTCAAGCTG", "reported result": 1}
{"sequence": "AAGCGGTTTT", "reported result": 1}
{"sequence": "AGGATGAGGT", "reported result": 0.978}

Form: sequence = CCCGTGCTTC ; switch fluorescence ratio = 1.07

Form: sequence = ATAATTTCAA ; switch fluorescence ratio = 0.999

Form: sequence = ACCGGTACTC ; switch fluorescence ratio = 1.31

Form: sequence = ACATGAGCGT ; switch fluorescence ratio = 0.996

Form: sequence = TGTGGTTTTA ; switch fluorescence ratio = 1

Form: sequence = AAGTAACGTC ; switch fluorescence ratio = 1.04

Form: sequence = TCAGGTATCG ; switch fluorescence ratio = 1

Form: sequence = TTCGTTCGGT ; switch fluorescence ratio = 1.06

Form: sequence = TGGGTATAGG ; switch fluorescence ratio = 0.975
